This collection of values is drawn from patent US6833372B2.

# Experiment Description: In vitro metabolism: disappearance of parent compound in rat liver microsomes (male, female)
# Assay type: in vitro ADME
# Setup Conditions: male rat liver microsomes, 5 uM compound, 30 minutes 37° C.
Readout Type: Male Rat (MR) % rem. 30′ (%)

[[record]]
molecule = "COCCOc1nc(OC)c(NC(=O)c2ccc(Cc3cc4c(cc3C)CCCC4(C)C)o2)c(OC)n1 [Example E1]"
reported_value = 12

[[record]]
molecule = "COc1nc(NCCCN2CCOCC2)nc(OC)c1NC(=O)c1ccc(Cc2cc3c(cc2C)CCCC3(C)C)o1"
reported_value = 36

[[record]]
molecule = "COc1nc(N(C)C)nc(OC)c1NC(=O)c1ccc(Cc2cc3c(cc2C)C(C)(C)OC3(C)C)o1"
reported_value = 58


A: COc1nc(NCCN(C)C)nc(OC)c1NC(=O)c1ccc(Cc2cc3c(cc2C)C(C)(C)OC3(C)C)o1
B: COc1nc(NCCCN2CCOCC2)nc(OC)c1NC(=O)c1ccc(Cc2cc3c(cc2C)C(C)(C)OC3(C)C)o1
C: COc1nc(NCCN2CCOCC2)nc(OC)c1NC(=O)c1ccc(Cc2cc3c(cc2C)C(C)(C)OC3(C)C)o1
Query string: Order these by Male Rat (MR) % rem. 30′, descending, and give the full ranking. Quick reminder: the answer is the labels in the order asked.
Result string: A, C, B
